test-details: self-splicing fitness, log relative to wild type (ln ratio); higher = more splicing; Tetrahymena group I intron in knt gene, E. coli kanamycin selection, DiMSum; sequences stand for … in CUCUCU…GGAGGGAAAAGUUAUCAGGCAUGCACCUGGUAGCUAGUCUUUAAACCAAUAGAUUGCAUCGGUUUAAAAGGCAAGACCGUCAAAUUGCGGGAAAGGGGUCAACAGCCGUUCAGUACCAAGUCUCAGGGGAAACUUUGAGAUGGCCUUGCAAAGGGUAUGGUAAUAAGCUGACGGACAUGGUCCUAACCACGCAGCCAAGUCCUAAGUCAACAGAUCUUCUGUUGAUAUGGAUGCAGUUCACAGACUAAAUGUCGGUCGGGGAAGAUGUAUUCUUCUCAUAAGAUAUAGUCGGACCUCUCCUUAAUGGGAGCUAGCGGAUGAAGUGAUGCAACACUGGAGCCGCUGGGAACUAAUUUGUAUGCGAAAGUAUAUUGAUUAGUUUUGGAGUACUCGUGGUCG;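 also: selection with 25 µg/mL kanamycin versus none on LB agar overnight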
conditions-used: 37 °C
experimental-readout: self-splicing fitness (ln)
Give your answer as a number; write no unit.

Using the record for "UCUUAGCAAUAUUACGGUUG" , report its self-splicing fitness (ln).
-2.18

Using the record for "AGGUAGCAAUAUUACGUCUG" , report its self-splicing fitness (ln).
-0.161

Using the record for "UCAUAGCAAUAUUACGACAC" , report its self-splicing fitness (ln).
-2.64

Using the record for "AAUUAGCAAUAUUACGAUCC" , report its self-splicing fitness (ln).
-0.148

Using the record for "CACUAGCAAUAUUACGACAG" , report its self-splicing fitness (ln).
0.0358

Using the record for "UACCAGCAAUAUUACGCGCU" , report its self-splicing fitness (ln).
-1.77

Using the record for "AACUAGCAAUAUUACGGAUG" , report its self-splicing fitness (ln).
-1.03

Using the record for "UAUUAGCAAUAUUACGCUUU" , report its self-splicing fitness (ln).
-0.435

Using the record for "AGUUAGCAAUAUUACGAUUA" , report its self-splicing fitness (ln).
-0.435

Using the record for "UGCCAGCAAUAUUACGAUAU" , report its self-splicing fitness (ln).
-1.74

Using the record for "GUGUAGCAAUAUUACGCCAG" , report its self-splicing fitness (ln).
-1.12
